Experiment: Rat Hepatocyte Stability (Test E)
Type: in vitro ADME
Settings: rat, hepatocytes, geometric mean if run multiple times
Outcome measure: hepatocyte CLint (µL/min/1e6 cells)

Please review the following examples before continuing.
COc1cc(C)c(O[C@H]2CC[C@@](C)(C(=O)O)CC2)cc1C(=O)N[C@@H]1[C@H]2CC[C@H](C2)[C@@H]1C(=O)NCC1(C)CCC1
32
COc1cc(C#N)c(O[C@H]2CC[C@@](C)(C(=O)O)CC2)cc1C(=O)N[C@@H]1[C@H]2CC[C@H](C2)[C@@H]1C(=O)NCC(C)(C)O
12

(a) COc1cc(C)c(O[C@H]2CC[C@@H](C(=O)O)CC2)cc1C(=O)N[C@@H]1[C@H]2CC[C@H](C2)[C@@H]1C(=O)Nc1cccc(S(=O)(=O)C(F)(F)F)c1
(b) COc1cc(C#N)c(O[C@H]2CC[C@@](C)(C(=O)O)CC2)cc1C(=O)N[C@@H]1[C@H]2CC[C@H](C2)[C@@H]1C(=O)NCC1(CO)CCC1
(c) CCCC1(CNC(=O)[C@H]2[C@@H]3CC[C@@H](C3)[C@H]2NC(=O)c2cc(O[C@H]3CC[C@@](C)(C(=O)O)CC3)c(C#N)cc2OC)CCC1
Hey, quick one: sort these by hepatocyte CLint, largest value first please. Answer by listing the labels in the order asked for.
a, c, b
